Target: hPIV-3 HN (UniProt P08492)
Format: biochemical, hPIV-3 (strain C-243)
Set-up: rows headed: NI Mean IC50; hPIV-3 HN; 3 independent experiments; Ki; Km value for MUN; other: whole hPIV-3 virus, [I]=0; fold improvement in NI assay; other: versus 6; hPIV-3 HN NI IC50; other: text; other: text, unit given as M
Conditions: read-out: hPIV-3 HN NI IC50
Recorded pIC50 values for a group of compounds are listed next.
Scale: negative log10 of molar concentration, which is what pIC50 denotes.

Please review the following examples before continuing.
{"columns": ["Compound", "pIC50"],
 "data": [
  ["COCc1cn([C@H]2C=C(C(=O)O)O[C@@H]([C@H](O)[C@H](O)CO)[C@@H]2NC(C)=O)nn1", 3.81],
  ["CC(=O)N[C@H]1[C@H]([C@H](O)[C@H](O)CO)OC(C(=O)[O-])=C[C@@H]1n1cc(-c2ccccc2)nn1.[Na+]", 5.19],
  ["COCc1cn([C@H]2C=C(C(=O)O)O[C@@H]([C@H](O)[C@H](O)CO)[C@@H]2NC(=O)C(C)C)nn1", 4.85]
]}

Now consider a different compound.
Query block: Give the measured pIC50 of CC(C)C(=O)N[C@H]1[C@H]([C@H](O)[C@H](O)CO)OC(C(=O)O)=C[C@@H]1N=[N+]=[N-] [Compound 6, BCX 2798, reference compound] .
Result block: 4.67

====

Biological target: hPIV-3 HN (UniProt P08492)
Format: biochemical, hPIV-3 (strain C-243)
Parameters: rows headed: NI Mean IC50; hPIV-3 HN; 3 independent experiments; Ki; Km value for MUN; other: whole hPIV-3 virus, [I]=0; fold improvement in NI assay; other: versus 6; hPIV-3 HN NI IC50; other: text; other: text, unit given as M
Conditions: read-out: NI Mean IC50
Value type: pIC50
Scale: negative log10 of molar concentration, which is what pIC50 denotes.

Query block: Need pIC50 of CC(C)C(=O)N[C@H]1[C@H]([C@H](O)[C@H](O)CO)OC(C(=O)O)=C[C@@H]1N=[N+]=[N-] [Compound 6, BCX 2798, reference compound] , thanks.
Result block: 4.67

====

pIC50 for assorted compounds
Target: hPIV-3 HN (Human parainfluenza 3 virus, UniProt P08492)
Format: biochemical, hPIV-3 (strain C-243)
Conditions: Table 5; read-out: hPIV-3 NI (IC50 values)
The meaning of pIC50 here: minus log10 of the concentration in molar units.

{"columns": ["Compound", "pIC50"],
 "data": [
  ["COc1cccc(-c2cn([C@H]3C=C(C(=O)O)O[C@@H]([C@H](O)[C@H](O)CO)[C@@H]3NC(C)=O)nn2)c1", 5.20],
  ["COc1ccc(-c2cn([C@H]3C=C(C(=O)O)O[C@@H]([C@H](O)[C@H](O)CO)[C@@H]3NC(C)=O)nn2)cc1", 4.64],
  ["CCCc1cn([C@H]2C=C(C(=O)O)O[C@@H]([C@H](O)[C@H](O)CO)[C@@H]2NC(C)=O)nn1", 4.17],
  ["CC(=O)N[C@H]1[C@H]([C@H](O)C(O)CO)OC(C(=O)O)=C[C@@H]1n1cc(-c2ccccc2C)nn1 (stereo partly shown)", 5.40],
  ["CC(=O)N[C@H]1[C@H]([C@H](O)[C@H](O)CO)OC(C(=O)O)=C[C@@H]1n1cc(-c2ccc(CO)cc2)nn1", 4.29]
]}

Query block: // returns reported pIC50 for input COCc1cn(C2C(F)[C@](F)(C(=O)O)OC([C@H](O)[C@H](O)CO)[C@@H]2NC(=O)C(C)C)nn1 (stereo partly shown)
Result block: 5.07

Query block: How about this compound: `COc1ccccc1-c1cn([C@H]2C=C(C(=O)O)O[C@@H]([C@H](O)[C@H](O)CO)[C@@H]2NC(C)=O)nn1`
Result block: 5.62

Query block: Try `CC(=O)N[C@H]1[C@H]([C@H](O)[C@H](O)CO)OC(C(=O)O)=C[C@@H]1n1cc(-c2cccnc2)nn1` next.
Result block: 3.97

Query block: Would you mind doing `CC(=O)N[C@H]1[C@H]([C@H](O)[C@H](O)CO)OC(C(=O)O)=C[C@@H]1n1cc(CC(C)C)nn1` as well?
Result block: 4.26

Query block: What about CC(=O)N[C@H]1[C@H]([C@H](O)C(O)CO)OC(C(=O)O)=C[C@@H]1n1cc(-c2ccccc2Br)nn1 (stereo partly shown) ?
Result block: 5.66

Query block: Next compound: `CC(C)C(=O)N[C@H]1[C@H]([C@H](O)[C@H](O)CO)OC(C(=O)O)=C[C@@H]1n1cnnn1`
Result block: 5.29

====

Tested on: hPIV-3
Assay: In situ ELISA virus growth inhibition
Type: cell-based, hPIV-3 (strain C-243)
Details: Human respirovirus 3, read-out: Virus growth inhibition IC50, range over all three cell lines
Value type: IC50

Query block: Using the record for `CC(C)C(=O)N[C@H]1[C@H]([C@H](O)[C@H](O)CO)OC(C(=O)[O-])=C[C@@H]1n1cc(-c2ccccc2)nn1.[Na+]` , report its IC50.
Result block: 2.1 to 13.9 µM

====

Reported IC50 values follow for various compounds
Target: UniProtKB P16071
Sequence (P16071 whole entry): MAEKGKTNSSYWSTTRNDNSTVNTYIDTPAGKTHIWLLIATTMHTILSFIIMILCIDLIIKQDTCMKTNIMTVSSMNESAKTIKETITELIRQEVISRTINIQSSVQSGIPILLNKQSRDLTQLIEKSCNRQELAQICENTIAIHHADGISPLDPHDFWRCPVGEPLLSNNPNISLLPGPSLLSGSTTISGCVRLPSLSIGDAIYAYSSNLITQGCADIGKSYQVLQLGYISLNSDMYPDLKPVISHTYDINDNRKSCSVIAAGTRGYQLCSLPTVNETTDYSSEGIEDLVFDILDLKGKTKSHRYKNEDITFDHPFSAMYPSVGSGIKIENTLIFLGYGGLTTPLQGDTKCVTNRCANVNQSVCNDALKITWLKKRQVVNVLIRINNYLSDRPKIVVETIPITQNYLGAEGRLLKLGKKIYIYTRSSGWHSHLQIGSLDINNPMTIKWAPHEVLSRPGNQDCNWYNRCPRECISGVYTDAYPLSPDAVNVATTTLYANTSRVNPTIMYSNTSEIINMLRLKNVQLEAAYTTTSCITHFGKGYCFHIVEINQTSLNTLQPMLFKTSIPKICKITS

Field: example entries. Status: answers known.
{"columns": ["Compound", "Assay result"],
 "data": [
  ["COc1ccc(-c2cn([C@H]3C=C(C(=O)O)O[C@@H]([C@H](O)[C@H](O)CO)[C@@H]3NC(C)=O)nn2)cc1", "303 µM"],
  ["CC(C)Cc1cn([C@H]2C=C(C(=O)O)O[C@@H]([C@H](O)[C@H](O)CO)[C@@H]2NC(=O)C(C)C)nn1", "47.7 µM"],
  ["CC(=O)N[C@H]1[C@H]([C@H](O)C(O)CO)OC(C(=O)O)=C[C@@H]1n1nncc1-c1ccccc1 (stereo partly shown)", "> 1000 µM"],
  ["CCCc1cn([C@H]2C=C(C(=O)O)O[C@@H]([C@H](O)[C@H](O)CO)[C@@H]2NC(C)=O)nn1", "95.5 µM"]
]}

Query block: Could you share which IC50 value was measured for `CC(=O)N[C@H]1[C@H]([C@H](O)[C@H](O)CO)OC(C(=O)O)=C[C@@H]1n1cc(-c2cccnc2)nn1` ?
Result block: 302 µM

Query block: Okay, and `COc1ccccc1-c1cn([C@H]2C=C(C(=O)O)O[C@@H]([C@H](O)[C@H](O)CO)[C@@H]2NC(C)=O)nn1` ?
Result block: 201 µM

Query block: What would you report for `COc1ccccc1-c1cn([C@H]2C=C(C(=O)O)O[C@@H]([C@H](O)[C@H](O)CO)[C@@H]2NC(=O)C(C)C)nn1` ?
Result block: 30.3 µM

====

Target: hPIV-3 HN (UniProt P08492)
Type: biochemical, hPIV-3 (strain C-243)
Parameters: rows headed: HI Mean IC50; hPIV-3 HN; 3 independent experiments; fold improvement in HI assay; other: versus 6; hPIV-3 HN HI IC50; other: text; other: text, unit given as M
Settings: Table 2 prints no unit, μM; hPIV-3 HN; 3 independent experiments; read-out: HI Mean IC50
Below, each entry is listed with its recorded IC50.
Numeric answer only, unit µM assumed.

{"columns": ["Molecule", "Experimental target", "Value type", "Assay result"],
 "data": [
  ["CC(=O)N[C@H]1[C@H]([C@H](O)[C@H](O)CO)OC(C(=O)[O-])=C[C@@H]1n1cc(-c2ccccc2)nn1.[Na+]", "hPIV-3 HN (UniProt P08492)", "IC50", 4.58],
  ["COCc1cn([C@H]2C=C(C(=O)O)O[C@@H]([C@H](O)[C@H](O)CO)[C@@H]2NC(C)=O)nn1", "hPIV-3 HN (UniProt P08492)", "IC50", 312],
  ["CC(C)C(=O)NC1C(O)C=C(C(=O)O)OC1C(O)C(O)CO (stereo not shown) [Compound 5, reference compound]", "hPIV-3 HN (UniProt P08492)", "IC50", 358]
]}

// below: IC50 requested for another molecule
Query block: # input molecule: `COCc1cn([C@H]2C=C(C(=O)O)O[C@@H]([C@H](O)[C@H](O)CO)[C@@H]2NC(=O)C(C)C)nn1` ; wanted: its IC50
Result block: 13.8

====

Target: hPIV-3 HN (UniProt P08492)
Sequence (P08492 1-572): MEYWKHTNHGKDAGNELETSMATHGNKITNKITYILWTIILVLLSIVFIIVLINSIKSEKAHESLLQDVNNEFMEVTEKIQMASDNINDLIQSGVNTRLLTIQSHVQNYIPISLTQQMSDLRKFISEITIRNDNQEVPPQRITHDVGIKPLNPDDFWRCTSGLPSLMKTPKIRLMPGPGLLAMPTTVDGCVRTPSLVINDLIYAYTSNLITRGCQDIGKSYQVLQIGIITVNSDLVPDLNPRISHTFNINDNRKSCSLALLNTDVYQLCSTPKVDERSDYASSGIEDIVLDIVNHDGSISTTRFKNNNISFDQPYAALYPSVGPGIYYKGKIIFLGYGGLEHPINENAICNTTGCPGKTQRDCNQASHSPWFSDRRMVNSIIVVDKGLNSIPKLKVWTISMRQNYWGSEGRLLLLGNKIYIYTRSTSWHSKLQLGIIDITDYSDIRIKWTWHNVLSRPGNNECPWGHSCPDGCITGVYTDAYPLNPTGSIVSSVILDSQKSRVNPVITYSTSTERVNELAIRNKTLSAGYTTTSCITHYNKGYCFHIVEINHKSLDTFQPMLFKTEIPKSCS
Assay type: biochemical, hPIV-3 (strain C-243)
Design: rows headed: NI Mean IC50; hPIV-3 HN; 3 independent experiments; Ki; Km value for MUN; other: whole hPIV-3 virus, [I]=0; fold improvement in NI assay; other: versus 6; hPIV-3 HN NI IC50; other: text; other: text, unit given as M
Value type: Ki

Query block: Need Ki, item CC(C)C(=O)N[C@H]1[C@H]([C@H](O)[C@H](O)CO)OC(C(=O)O)=C[C@@H]1N=[N+]=[N-] [Compound 6, BCX 2798, reference compound]
Result block: 16 µM
